This section presents sequences with their documented apparent KD of MS2 coat protein values.
test system: MS2 coat protein; experiment: apparent KD of MS2 coat protein; designed switch direction (-1 OFF switch, 1 ON switch): -1; higher = weaker reporter binding; details: input ligand: microRNA oligo, concentration not stated
Provide the reading as a plain figure in nM.

Some sequences with known apparent KD of MS2 coat protein results, for comparison:
{"columns": ["biosequence", "system name", "quantitative readout"],
 "data": [
  ["AAGACAAAUGUAGGAUAUGCGUGGCGAAGCUAUGCAGAAGGACAUGAGGAUCACCCAUGUCUUAGCGUCUGCGUACAGAUGCUA [JL eng1 1.35 mod 9] (Eterna round: R96, puzzle: Exclusion NG 1)", "MS2 coat protein", 12.1],
  ["UUUUCAUAUGAAGGAUAUACUUAACAUGAGGAUCACCCAUGUGGUGUUGUGAGUGAGUGAGUUUAGUAGAAGGUCAAGUAUUUU [JMF's solution 48] (Eterna round: R96, puzzle: Exclusion NG 2)", "MS2 coat protein", 304],
  ["UAAUUAAUAAGAUCAAUUAAUUAACAUGAGGAUCACCCAUGUGAGGAUAUCAGCUCGAUUAGAGCUGAGAAGGCACAAUAAUUA [ExNG3/17-C1] (Eterna round: R96, puzzle: Exclusion NG 3)", "MS2 coat protein", 39]
]}

Log: MS2 coat protein, sequence UUAGAAAUGUUAGGAUAUUAAUAUUUUUUUAGUAUGAUCUACAUGAGGAUCACCCAUGUUAAUAUUAAGAAGGAACAUUUUAUU [JR_ExcNG2_Sub099] (Eterna round: R96, puzzle: Exclusion NG 2) , apparent KD of MS2 coat protein = 71.5

Query AAGAACUUAGGAUAUACAUGAGGAUCACCCAUGUAGCUUCACUUGGGCCUGAGCCCGUGUAGAAGGAAGAAAAU [Arge] (Eterna round: R96, puzzle: Exclusion 3) on MS2 coat protein; apparent KD of MS2 coat protein returned: 47.6

====

tested on: K4 kissing-loop RNA reporter; assay: apparent KD of K4 kissing-loop reporter; higher = weaker reporter binding; conditions: Eterna round: R107; input ligand: none;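 further: bound reporter read as fluorescence of individual clusters on recovered sequencing chips by microscopy, with normalized cluster intensities fitted with a binding model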
Please use fulfilled whenever apparent KD of K4 kissing-loop reporter is not below 200 nM, and not fulfilled whenever it is.

{"columns": ["biosequence", "system name", "class assignment"],
 "data": [
  ["AGUUCUUGCCGAAGGAGCGAGGCAGAGUGAUGUUCUGCAAGAGGUCGAAAGACCUCACUGCCUCAGGUAGGUCGCGGCAUGAACA [Omei KL Arginine B Exc A v4]", "K4 kissing-loop RNA reporter", "fulfilled"],
  ["UGGAGUUGACGAAAAGUCAACUCCUGGGAAGGAGCGGACGAAAGUCCAGGUAGGUCGCCCACUACCAGUGAUGUUGGUACUUCAA", "K4 kissing-loop RNA reporter", "fulfilled"],
  ["UGUCAUUGGUCUGAUACCAGUUAGACCGAUAGGUCAAAACUGGAGUGAUGUUCCCAAAAUAACCCUUGGCAGCAGACCGAUGACU [TheoBS 3 #SwitchBubble #StaticStem]", "K4 kissing-loop RNA reporter", "not fulfilled"],
  ["UCUGCAAAGUCGGCCGCCACUCCGGGCCCUAUAAAUGGGCGCAGUGAUGUUGCGGCUAGGCCUCUGAGGACCGGGACUUUGUAGA [Atlesoqu]", "K4 kissing-loop RNA reporter", "not fulfilled"],
  ["UAGUCCGAGUGAUGGUCAUCACGUGGCGGGCGAGGACCGGUACGGCCGCCACUCGACUUUGCAGUGAUGUUGCAAACCGGACAAU [Exclusion - Tryptophan A (Freestyle 21)]", "K4 kissing-loop RNA reporter", "fulfilled"]
]}

Would you say "UGAUAGGACAGAAGGAGCGGUAGUGAUGUUGCCAAAAGUAUAAGGUGUCAAAAGACACCCUGCCAGGUAGGUCGCUGUCCUAUCU" shows apparent KD of K4 kissing-loop reporter at minimum 200 nM?
not fulfilled
